The values you see were collected from ChEMBL document CHEMBL1125316.

- Test system: CCRF-CEM
- measurement-notes: Compound was evaluated for the inhibition of HIV infected CEM cells.
- Format: functional, Homo sapiens
Catalogue of EC50 values
Unit µg/mL implied. Number only.

Below are worked cases with known answers.
CC[C@H](C)[C@H](NC(=O)C1CCCN1C[C@@H](O)[C@H](Cc1ccccc1)NC(=O)[C@H](CC(N)=O)NC(=O)c1ccc2ccccc2n1)C(=O)N[C@@H](Cc1ccccc1)C(=O)NC (stereo not given in full); 0.13
CC[C@H](C)[C@H](NC(=O)C1CCCN1C[C@@H](O)[C@H](Cc1ccccc1)NC(=O)[C@H](CC(N)=O)NC(=O)OCc1ccccc1)C(=O)N[C@@H](Cc1ccccc1)C(=O)NC (stereo not given in full); 0.3
CC[C@H](C)[C@H](NC(=O)[C@@H]1CCCN1C[C@@H](O)[C@H](Cc1ccccc1)NC(=O)[C@H](CC(N)=O)NC(=O)OCc1ccccc1)C(=O)N[C@@H](Cc1ccccc1)C(=O)OC; 0.31

Q: Return the recorded EC50 value; entry: CC[C@H](C)[C@H](NC(=O)C1CCCN1C[C@@H](O)[C@H](Cc1ccccc1)NC(=O)[C@H](CC(N)=O)NC(=O)c1ccc2ccccc2n1)C(=O)NCCc1ccccn1 (stereo not given in full)
Result: 0.19

Q: Respond only with EC50 recorded for CC[C@H](C)[C@H](NC(=O)C1CCCN1C[C@@H](O)[C@H](Cc1ccccc1)NC(=O)[C@H](CC(N)=O)NC(=O)OCc1ccccc1)C(=O)N[C@@H](Cc1ccccc1)C(=O)OC (stereo not given in full)
Result: 0.6

====

- target-desc: Human immunodeficiency virus type 1 protease (Human immunodeficiency virus 1, UniProt Q72874)
Starred links: 1 amine or outer side, 2 acyl side, 3 side chain; linkers in the order of their positions; H or OH if unused. Non-standard residues stand in square brackets, D forms with d. Residues, ends and D or L forms follow the SMILES beside them. ξ: configuration not given here. *: point of attachment. Pheψ(R-CHOHCH2N)ξPro = O=C(C1CCCN1C[C@@H](O)[C@H](Cc1ccccc1)N[*:1])[*:2]; Phe(3-Ph) = N[C@@H](Cc1cccc(-c2ccccc2)c1)C(=O)O; Boc = CC(C)(C)OC(=O)*
measurement-name: pKi
Kindly note that pKi refers to -log10 of the concentration in mol/L and answer with the value alone.

CC[C@H](C)[C@H](NC(=O)C1CCCN1C[C@@H](O)[C@H](Cc1ccccc1)NC(=O)[C@H](CC(N)=O)NC(=O)[C@H](CC(C)C)NC(=O)[C@H](CO)NC(C)=O)C(=O)N[C@H](C(=O)OC)C(C)C (some centres undefined) (Ac-SLN[Pheψ(R-CHOHCH2N)ξPro]IV-OMe); 9.22
CC[C@H](C)[C@H](NC(=O)C1CCCN1C[C@@H](O)[C@H](Cc1ccccc1)NC(=O)[C@H](CC(N)=O)NC(=O)[C@H](Cc1c(I)cc(O)cc1I)NC(=O)OC(C)(C)C)C(=O)N[C@H](C(=O)OC)C(C)C (some centres undefined); 6.88
CC[C@H](C)[C@H](NC(=O)C1CCCN1C[C@@H](O)[C@H](Cc1ccccc1)NC(=O)[C@H](CC(N)=O)NC(=O)[C@H](Cc1cccc(-c2ccccc2)c1)NC(=O)OC(C)(C)C)C(=O)N[C@H](C(=O)OC)C(C)C (some centres undefined) (Boc-[Phe(3-Ph)]N[Pheψ(R-CHOHCH2N)ξPro]IV-OMe); 8.17

Q: Identify the reported pKi for the following entry. CC[C@H](C)[C@H](NC(=O)C1CCCN1C[C@@H](O)[C@H](Cc1ccccc1)NC(=O)[C@H](CC(N)=O)NC(=O)OCc1ccccc1)C(=O)N[C@@H](Cc1ccccc1)C(=O)OC (some centres undefined)
Result: 8.77
